- Assayed System: Receptor-type tyrosine-protein kinase FLT3 (Homo sapiens)
- Procedure Summary: Inhibition of FLT3 (unknown origin) using peptide as substrate preincubated with enzyme for 10 mins followed by substrate addition further incubated for 1 hr by mobility shift assay
Measurement Type: IC50 (µM)

COc1cc2nccc(Oc3ccc(NC(=O)N/N=C/c4cn(-c5ccccc5OC)nn4)cc3)c2cc1OC ... 0.312
COc1cc2nccc(Oc3ccc(NC(=O)N/N=C/c4cn(-c5cccc(F)c5)nn4)cc3)c2cc1OC ... 0.384

====

- Assayed System: Receptor-type tyrosine-protein kinase FLT3 (Homo sapiens, UniProt P36888)
- Sequence (P36888 whole entry): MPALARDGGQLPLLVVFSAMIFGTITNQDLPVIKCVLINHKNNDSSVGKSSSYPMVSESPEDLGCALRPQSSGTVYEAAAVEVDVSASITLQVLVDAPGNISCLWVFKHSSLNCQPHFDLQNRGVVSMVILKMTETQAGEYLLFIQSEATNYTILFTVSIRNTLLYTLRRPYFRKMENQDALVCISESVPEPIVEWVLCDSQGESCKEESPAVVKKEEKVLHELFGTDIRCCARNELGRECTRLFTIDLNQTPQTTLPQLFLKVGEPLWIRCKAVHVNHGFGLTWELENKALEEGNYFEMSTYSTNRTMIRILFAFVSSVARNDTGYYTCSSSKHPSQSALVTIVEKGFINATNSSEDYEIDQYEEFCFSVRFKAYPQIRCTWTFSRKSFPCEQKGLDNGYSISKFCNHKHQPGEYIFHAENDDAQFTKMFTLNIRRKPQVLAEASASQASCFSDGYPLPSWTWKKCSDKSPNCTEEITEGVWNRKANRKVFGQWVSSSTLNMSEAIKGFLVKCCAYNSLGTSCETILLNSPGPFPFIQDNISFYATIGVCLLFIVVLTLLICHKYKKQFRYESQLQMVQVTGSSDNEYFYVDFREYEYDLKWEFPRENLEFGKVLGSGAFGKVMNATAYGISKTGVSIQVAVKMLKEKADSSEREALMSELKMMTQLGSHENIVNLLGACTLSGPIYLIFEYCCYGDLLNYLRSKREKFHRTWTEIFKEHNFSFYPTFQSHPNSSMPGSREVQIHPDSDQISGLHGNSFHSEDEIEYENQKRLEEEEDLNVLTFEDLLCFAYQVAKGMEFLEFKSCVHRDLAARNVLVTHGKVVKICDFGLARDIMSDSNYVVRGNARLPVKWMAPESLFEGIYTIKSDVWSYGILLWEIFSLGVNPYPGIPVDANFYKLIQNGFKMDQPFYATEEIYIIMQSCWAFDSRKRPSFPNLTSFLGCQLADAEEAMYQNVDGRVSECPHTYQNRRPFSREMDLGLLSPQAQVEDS
- Procedure Summary: Inhibition of FLT3 (unknown origin) using peptide as substrate preincubated with enzyme for 10 mins followed by substrate addition further incubated for 1 hr by mobility shift assay
A collection of molecules and their measured IC50

Take a look at these entries with their results.
COc1cc2nccc(Oc3ccc(NC(=O)N/N=C/c4cn(-c5cccc(Cl)c5)nn4)cc3)c2cc1OC ... > 1 µM
COc1cccc(-n2cc(/C=N/NC(=O)Nc3ccc(Oc4ccnc5cc(OC)c(OC)cc45)cc3)nn2)c1 ... > 1 µM

### Prompt So what IC50 did COc1cc2nccc(Oc3ccc(NC(=O)N/N=C/c4cn(-c5ccccc5F)nn4)cc3)c2cc1OC get with Receptor-type tyrosine-protein kinase FLT3 (Homo sapiens, UniProt P36888)?
### Response > 1 µM
